assay: folding enthalpy; higher = less favourable; fluorescence melt of hairpins on a sequencing array, two-state fit; conditions: sodium 0.088 M
PROPERTY: folding enthalpy (kcal/mol)
Numeric only. Scale: kcal/mol

residue_codes="GATCTCAAGGGAGATC ((((((....))))))" quantitative_result=-28.6

query: Reported folding enthalpy for GCTCTGCGAAAGCATCGC ((..(((....)))..)) : what is it?
result: -16.3

query: Reported folding enthalpy for GGTCTACCGAAAGGTACC (((..(((....)))))) : what is it?
result: -11

query: Reported folding enthalpy for GGCATCCGAAAGGAAGCC (((.(((....))).))) : what is it?
result: -42.9
